Data provenance: patent US20070105771A1

Listing of entries alongside the reported kon.
Target: T1, Purified recombinant human CD26 (rhDipeptidyl peptidase IV), R&D Systems CAT #1180-SE (human, UniProt P27487 29-766)
T1 construct: Bought recombinant protein; also called hu-CD26; soluble human CD26
T1 sequence (P27487 29-766 limits assumed): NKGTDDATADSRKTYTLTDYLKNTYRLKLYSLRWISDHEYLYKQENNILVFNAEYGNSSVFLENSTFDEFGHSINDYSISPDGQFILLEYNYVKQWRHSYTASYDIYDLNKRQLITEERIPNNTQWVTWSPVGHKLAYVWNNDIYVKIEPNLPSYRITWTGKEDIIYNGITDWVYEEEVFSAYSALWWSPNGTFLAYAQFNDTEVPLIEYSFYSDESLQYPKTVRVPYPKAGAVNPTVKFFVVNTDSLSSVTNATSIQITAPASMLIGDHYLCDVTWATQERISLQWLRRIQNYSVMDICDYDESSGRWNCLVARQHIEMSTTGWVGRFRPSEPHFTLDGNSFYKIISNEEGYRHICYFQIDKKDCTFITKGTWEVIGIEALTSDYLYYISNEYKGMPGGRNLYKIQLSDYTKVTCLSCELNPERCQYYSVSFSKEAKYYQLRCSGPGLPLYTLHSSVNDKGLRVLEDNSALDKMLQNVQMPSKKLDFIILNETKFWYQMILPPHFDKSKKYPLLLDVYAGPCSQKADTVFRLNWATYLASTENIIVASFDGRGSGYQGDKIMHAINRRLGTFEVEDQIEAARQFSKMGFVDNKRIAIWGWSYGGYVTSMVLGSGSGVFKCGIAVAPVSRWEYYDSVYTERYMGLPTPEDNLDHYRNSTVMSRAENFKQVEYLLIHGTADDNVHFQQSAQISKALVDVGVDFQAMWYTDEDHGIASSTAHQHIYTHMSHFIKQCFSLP
Assay: SPR (Biacore), Fab
recorded.endpoint: kon (M⁻¹ s⁻¹)

>>> result("Fab comprising X384 VH and CM03 VL (Fab, V domains shown, Fab made in E. coli) VH: EVQLVESGAGVKQPGGTLRLTCTASGFSLTTYGVHWVRQAPGKGLEWVGVIWGDGRTDYDAAFMSRVTISKDTSKSTVYLQMNSLRAEDTAVYYCMRNRHDWFDYWGQGTTVTVSS VL: DIQMTQSPSSLSASLGDRVTITCSASQGIRNSLNWYQQKPDGAVKLLIYYSSNLHSGVPSRFSGSGSGTDFSLTISNLEPEDIATYYCQQSIKLPFTFGSGTKLEIK")
262000
>>> result("Fab comprising X385 VH and CM03 VL (Fab, V domains shown, Fab made in E. coli) VH: EVQLVQSGGGVKQPGETLRLTCTASGFSLTTYGVHWVRQAPGKGLEWVGVIWGDGRTDYDAAFMSRVTISKDTSKSTAYLQMNSLRAEDTAVYYCMRNRHDWFDYWGQGTTVTVSS VL: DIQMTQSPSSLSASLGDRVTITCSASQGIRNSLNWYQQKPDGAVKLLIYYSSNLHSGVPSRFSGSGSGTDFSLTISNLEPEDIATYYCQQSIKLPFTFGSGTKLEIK")
256000
>>> result("Fab comprising X386 VH and CM03 VL (Fab, V domains shown, Fab made in E. coli) VH: EVQLVESGAGVEQPGGTLRLTCTASGFSLTTYGVHWVRQAPGKGLEWMGVIWGDGRTDYDAAFMSRVTISRDTSKSTAYLQLNSLRAEDTAVYYCVRNRHDWFDYWGQGTTVTVSS VL: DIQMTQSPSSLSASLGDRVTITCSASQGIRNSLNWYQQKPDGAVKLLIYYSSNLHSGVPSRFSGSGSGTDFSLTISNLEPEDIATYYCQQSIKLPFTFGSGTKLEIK")
184000
>>> result("Fab comprising X387 VH and CM03 VL (Fab, V domains shown, Fab made in E. coli) VH: EVQLVESGAELVQPGGSLRLTCKASGFTLNTYGVHWVRQAPGKGLEWMGVIWGGGRTDYDASFMSRVTISKDNSKNTAYLQLNSLRAEDTAVYYCTRSRHDWFDYWGQGTTVTVSS VL: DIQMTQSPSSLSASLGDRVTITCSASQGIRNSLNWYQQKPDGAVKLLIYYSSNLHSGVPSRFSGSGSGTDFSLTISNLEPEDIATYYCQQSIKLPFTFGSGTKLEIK")
196000
